Experiment: total protein half-life in vivo (active degradation + dilution); higher = more stable protein
Details: E. coli NCM3722 delta-clpP delta-lon delta-hslV; growth: N-lim chemostat; doubling time 6 h
The entries below come with measured total protein half-life in vivo values attached.

[
  {
    "QUERY SEQUENCE": "MDLRRFITLKTVVEEGSFLRASQKLCCTQSTVTFHIQQLEQEFSVQLFEKIGRRMCLTREGKKLLPHIYELTRVMDTLREAAKKESDPDGELRVVSGETLLSYRMPQVLQRFRQRAPKVRLSLQSLNCYVIRDALLNDEADVGVFYRVGNDDALNRRELGEQSLVLVASPQIADVDFTEPGRHNACSFIINEPQCVFRQIFESTLRQRRITVENTIELISIESIKRCVAANIGVSYLPRFAVAKELECGELIELPFGEQSQTITAMCAHHAGKAVSPAMHTFIQCVEESFVAG",
    "SCALE UNIT": "h",
    "total protein half-life in vivo": 5.31
  },
  {
    "QUERY SEQUENCE": "MGLMNAFDSQTEDSSPAIGRNLRSRPLARKKLSEMVEEELEQMIRRREFGEGEQLPSERELMAFFNVGRPSVREALAALKRKGLVQINNGERARVSRPSADTIIGELSGMAKDFLSHPGGIAHFEQLRLFFESSLVRYAAEHATDEQIDLLAKALEINSQSLDNNAAFIRSDVDFHRVLAEIPGNPIFMAIHVALLDWLIAARPTVTDQALHEHNNVSYQQHIAIVDAIRRHDPDEADRALQSHLNSVSATWHAFGQTTNKKK [P0A8W0]",
    "SCALE UNIT": "h",
    "total protein half-life in vivo": 5.49
  },
  {
    "QUERY SEQUENCE": "MSIKTIKYFSTIIVAVVAVLAGWWLWNYYMQSPWTRDGKIRAEQVSITPQVSGRIVELNIKDNQLVNAGDLLLTIDKTPFQIAELNAQAQLAKAQSDLAKANNEANRRRHLSQNFISAEELDTANLNVKAMQASVDAAQATLKQAQWQLAQTEIRAPVSGWVTNLTTRIGDYADTGKPLFALVDSHSFYVIGYFEETKLRHIREGAPAQITLYSDNKTLQGHVSSIGRAIYDQSVESDSSLIPDVKPNVPWVRLAQRVPVRFALDKVPGDVTLVSGTTCSIAVGQ",
    "SCALE UNIT": "h",
    "total protein half-life in vivo": 6.43
  }
]

* * *

Test: total protein half-life in vivo (active degradation + dilution); higher = more stable protein
Details: wild type E. coli NCM3722; growth: C-lim chemostat; doubling time 12 h
The entries below come with measured total protein half-life in vivo values attached.
MEASUREMENT KIND: total protein half-life in vivo (h)

[
  {
    "QUERY SEQUENCE": "MSKSRLTVFSFVRRFLLRLMVVLAVFWGGGIALFSVAPVPFSAVMVERQVSAWLHGNFRYVAHSDWVSMDQISPWMGLAVIAAEDQKFPEHWGFDVASIEKALAHNERNENRIRGASTISQQTAKNLFLWDGRSWVRKGLEAGLTLGIETVWSKKRILTVYLNIAEFGDGVFGVEAAAQRYFHKPASKLTRSEAALLAAVLPNPLRFKVSSPSGYVRSRQAWILRQMYQLGGEPFMQQHQLD",
    "MEASUREMENT KIND": "total protein half-life in vivo",
    "MEASURED": 10.8
  },
  {
    "QUERY SEQUENCE": "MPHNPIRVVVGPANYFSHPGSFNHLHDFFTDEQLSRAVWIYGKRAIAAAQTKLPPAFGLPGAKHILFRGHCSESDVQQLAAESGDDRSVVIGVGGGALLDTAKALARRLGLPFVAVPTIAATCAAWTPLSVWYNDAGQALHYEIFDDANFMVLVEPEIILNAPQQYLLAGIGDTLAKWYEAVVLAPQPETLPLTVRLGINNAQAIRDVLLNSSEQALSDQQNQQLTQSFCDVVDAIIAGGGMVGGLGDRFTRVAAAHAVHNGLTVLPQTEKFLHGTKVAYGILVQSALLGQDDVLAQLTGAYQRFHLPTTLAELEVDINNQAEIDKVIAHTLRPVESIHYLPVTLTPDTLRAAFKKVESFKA",
    "MEASUREMENT KIND": "total protein half-life in vivo",
    "MEASURED": 9.15
  },
  {
    "QUERY SEQUENCE": "MARIIVVTSGKGGVGKTTSSAAIATGLAQKGKKTVVIDFDIGLRNLDLIMGCERRVVYDFVNVIQGDATLNQALIKDKRTENLYILPASQTRDKDALTREGVAKVLDDLKAMDFEFIVCDSPAGIETGALMALYFADEAIITTNPEVSSVRDSDRILGILASKSRRAENGEEPIKEHLLLTRYNPGRVSRGDMLSMEDVLEILRIKLVGVIPEDQSVLRASNQGEPVILDINADAGKAYADTVERLLGEERPFRFIEEEKKGFLKRLFGG [P0AEZ3]",
    "MEASUREMENT KIND": "total protein half-life in vivo",
    "MEASURED": 10.1
  },
  {
    "QUERY SEQUENCE": "MRLSDYFPESSISVIHSAKDWQEAIDFSMVSLLDKNYISENYIQAIKDSTINNGPYYILAPGVAMPHARPECGALKTGMSLTLLEQGVYFPGNDEPIKLLIGLSAADADSHIGAIQALSELLCEEEILEQLLTASSEKQLADIISRG",
    "MEASUREMENT KIND": "total protein half-life in vivo",
    "MEASURED": 8.65
  },
  {
    "QUERY SEQUENCE": "MSNWPYPRIVAHRGGGKLAPENTLASIDVGAKYGHKMIEFDAKLSKDGEIFLLHDDNLERTSNGWGVAGELNWQDLLRVDAGSWYSKMFKGEPLPLLSQVAERCREHGMMANIEIKPTTGTGPLTGKMVALAARELWAGMTPPLLSSFEIDALEAAQQAAPELPRGLLLDEWRDDWRELTARLGCVSIHLNHKLLNKARVMQLKDAGLRILVYTVNKPQRAAELLRWGVDCICTDAIDVIGPNFTAQ",
    "MEASUREMENT KIND": "total protein half-life in vivo",
    "MEASURED": 9.38
  },
  {
    "QUERY SEQUENCE": "MKQTVYIASPESQQIHVWNLNHEGALTLTQVVDVPGQVQPMVVSPDKRYLYVGVRPEFRVLAYRIAPDDGALTFAAESALPGSPTHISTDHQGQFVFVGSYNAGNVSVTRLEDGLPVGVVDVVEGLDGCHSANISPDNRTLWVPALKQDRICLFTVSDDGHLVAQDPAEVTTVEGAGPRHMVFHPNEQYAYCVNELNSSVDVWELKDPHGNIECVQTLDMMPENFSDTRWAADIHITPDGRHLYACDRTASLITVFSVSEDGSVLSKEGFQPTETQPRGFNVDHSGKYLIAAGQKSHHISVYEIVGEQGLLHEKGRYAVGQGPMWVVVNAH",
    "MEASUREMENT KIND": "total protein half-life in vivo",
    "MEASURED": 11.1
  },
  {
    "QUERY SEQUENCE": "MTDVLLCVGNSMMGDDGAGPLLAEKCAAAPKGNWVVIDGGSAPENDIVAIRELRPTRLLIVDATDMGLNPGEIRIIDPDDIAEMFMMTTHNMPLNYLIDQLKEDIGEVIFLGIQPDIVGFYYPMTQPIKDAVETVYQRLEGWEGNGGFAQLAVEEE [P0AEV9]",
    "MEASUREMENT KIND": "total protein half-life in vivo",
    "MEASURED": 8.74
  },
  {
    "QUERY SEQUENCE": "MSTTNHDHHIYVLMGVSGSGKSAVASEVAHQLHAAFLDGDFLHPRRNIEKMASGEPLNDDDRKPWLQALNDAAFAMQRTNKVSLIVCSALKKHYRDLLREGNPNLSFIYLKGDFDVIESRLKARKGHFFKTQMLVTQFETLQEPGADETDVLVVDIDQPLEGVVASTIEVIKKGK",
    "MEASUREMENT KIND": "total protein half-life in vivo",
    "MEASURED": 8.67
  },
  {
    "QUERY SEQUENCE": "MQYNPLGKTDLRVSRLCLGCMTFGEPDRGNHAWTLPEESSRPIIKRALEGGINFFDTANSYSDGSSEEIVGRALRDFARREDVVVATKVFHRVGDLPEGLSRAQILRSIDDSLRRLGMDYVDILQIHRWDYNTPIEETLEALNDVVKAGKARYIGASSMHASQFAQALELQKQHGWAQFVSMQDHYNLIYREEEREMLPLCYQEGVAVIPWSPLARGRLTRPWGETTARLVSDEVGKNLYKESDENDAQIAERLTGVSEELGATRAQVALAWLLSKPGIAAPIIGTSREEQLDELLNAVDITLKPEQIAELETPYKPHPVVGFK",
    "MEASUREMENT KIND": "total protein half-life in vivo",
    "MEASURED": 9.04
  },
  {
    "QUERY SEQUENCE": "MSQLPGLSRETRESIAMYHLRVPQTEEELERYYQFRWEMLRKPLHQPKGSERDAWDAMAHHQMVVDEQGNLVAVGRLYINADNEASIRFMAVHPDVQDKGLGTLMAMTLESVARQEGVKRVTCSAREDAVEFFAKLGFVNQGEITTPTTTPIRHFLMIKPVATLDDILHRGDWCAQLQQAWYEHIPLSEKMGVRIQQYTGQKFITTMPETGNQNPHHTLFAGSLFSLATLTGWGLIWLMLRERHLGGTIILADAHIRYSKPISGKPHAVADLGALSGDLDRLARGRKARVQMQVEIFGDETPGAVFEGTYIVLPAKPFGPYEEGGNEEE [P0ADQ2]",
    "MEASUREMENT KIND": "total protein half-life in vivo",
    "MEASURED": 9.83
  },
  {
    "QUERY SEQUENCE": "MSEQLVTPENVTTKDGKINLLDLNRQQMREFFKDLGEKPFRADQVMKWMYHYCCDNFDEMTDINKVLRGKLKEVAEIRAPEVVEEQRSSDGTIKWAIAVGDQRVETVYIPEDDRATLCVSSQVGCALECKFCSTAQQGFNRNLRVSEIIGQVWRAAKIVGAAKVTGQRPITNVVMMGMGEPLLNLNNVVPAMEIMLDDFGFGLSKRRVTLSTSGVVPALDKLGDMIDVALAISLHAPNDEIRDEIVPINKKYNIETFLAAVRRYLEKSNANQGRVTIEYVMLDHVNDGTEHAHQLAELLKDTPCKINLIPWNPFPGAPYGRSSNSRIDRFSKVLMSYGFTTIVRKTRGDDIDAACGQLAGDVIDRTKRTLRKRMQGEAIDIKAV",
    "MEASUREMENT KIND": "total protein half-life in vivo",
    "MEASURED": 2.44
  }
]

meta.source: the supplement of paper PMC11246515
